Parameter melting point: see the listing below.

Worked examples follow.
CCOC(=O)c1cccc(-c2nc(-c3ccc(C)c(C)c3)cs2)c1 [Example 76]    147 to 148 °C
COC(=O)c1ccc(-c2nc(-c3ccc(C(F)(F)F)cc3)co2)cc1    182 to 183 °C
Cc1cc(-c2csc(-c3ccc(C(=O)O)cc3)n2)c(C)o1    264 to 265 °C
COc1ccc(-c2csc(-c3cccc(C(=O)O)c3)n2)cc1    236 to 238 °C
COC(=O)c1ccc(-c2nc(-c3cc(C)oc3C)cs2)cc1    103 to 105 °C
Cc1cc(-c2csc(-c3ccc(C(=O)O)cc3)n2)c(C)s1    239 to 240 °C
CCOC(=O)c1ccc(-c2coc(-c3ccc(Cl)cc3)n2)cc1    153 to 154 °C
COC(=O)c1ccc(-c2nc(-c3cc(Cl)sc3Cl)cs2)cc1    149 to 150 °C
COC(=O)c1cccc(-c2nc(-c3ccc(F)cc3F)cs2)c1    121 to 122 °C
COC(=O)c1cccc(-c2nc(-c3ccc(OC)cc3)cs2)c1    108 to 109 °C

Query :: // query melting point value for entry `COC(=O)c1ccc(-c2nc(-c3cccc(Cl)c3)cs2)cc1`
Result :: 150 to 151 °C

Query :: Record request: melting point value, item `CCOc1ccc(-c2csc(-c3cccc(C(=O)OC)c3)n2)cc1`
Result :: 192 to 193 °C

Query :: // returns reported melting point for input `CCOC(=O)c1cccc(-c2nc(-c3cc(C)oc3C)cs2)c1`
Result :: 100 to 101 °C

Query :: Using the record for `COC(=O)c1cccc(-c2nc(-c3cccc(OC(F)(F)F)c3)cs2)c1` , report its melting point.
Result :: 84 to 85 °C

Query :: If you can, please state the reported melting point value of `CCOC(=O)c1ccc(-c2csc(-c3ccc(Cl)cc3)n2)cc1` .
Result :: 105 to 106 °C

Query :: Consider the molecule shown here: `O=C(O)c1ccc(-c2nc(-c3ccc(Cl)s3)cs2)cc1` What is its recorded melting point?
Result :: 283 to 284 °C

Query :: Would you kindly share the measured melting point for `O=C(O)c1ccc(-c2nc(-c3ccc(Br)cc3)cs2)cc1` ?
Result :: > 300 °C

Query :: Reported melting point, molecule `O=C(O)c1ccc(-c2nc(-c3ccncc3)cs2)cc1` : ____
Result :: > 300 °C

Query :: melting point lookup needed for `COC(=O)c1ccc(-c2nc(-c3ccc(OC(F)F)cc3)co2)cc1` , thanks.
Result :: 160 to 161 °C

Query :: Need melting point of `O=C(O)c1ccc(-c2cnc(-c3ccc(C(F)(F)F)cc3)o2)cc1` , thanks.
Result :: 253 to 254 °C
